Target: PTP1B (Homo sapiens)
Sequence (P18031 1-321): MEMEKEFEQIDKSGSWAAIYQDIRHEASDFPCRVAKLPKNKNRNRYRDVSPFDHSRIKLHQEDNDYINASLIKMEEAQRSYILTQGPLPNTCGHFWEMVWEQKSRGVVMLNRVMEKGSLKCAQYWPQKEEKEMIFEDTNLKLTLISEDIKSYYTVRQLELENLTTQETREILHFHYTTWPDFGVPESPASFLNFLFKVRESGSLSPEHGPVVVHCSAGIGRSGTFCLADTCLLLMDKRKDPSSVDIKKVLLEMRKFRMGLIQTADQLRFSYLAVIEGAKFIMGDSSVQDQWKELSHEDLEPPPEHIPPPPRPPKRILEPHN
Test: PTP assay, wild-type PTP1B
Format: biochemical
Details: WT catalytic domain aa 1–321; 100 mM HEPES pH 7.4; monitored at 282 nm
metric: kcat/KM x10^6

Q. // lookup kcat/KM x10^6 | system=PTP1B (Homo sapiens) | key= AApYWAYDD
A. 15 x10^6 M^−1 s^−1

Q. Now this one: EEDNAWpYAA
A. 21 x10^6 M^−1 s^−1

Q. Further, for AApYDDIDE ?
A. 11 x10^6 M^−1 s^−1

# context switch: different substance, same kcat/KM x10^6
Q. Look up kcat/KM x10^6 with PTP1B (Homo sapiens) for this substance: Ac-AApYDLDEY-NH2
A. 18 x10^6 M^−1 s^−1
